These measurements were taken from ChEMBL document CHEMBL1140130.

Target: Ribosomal protein S6 kinase alpha-5 (Homo sapiens, UniProt O75582)
Sequence (O75582 whole entry): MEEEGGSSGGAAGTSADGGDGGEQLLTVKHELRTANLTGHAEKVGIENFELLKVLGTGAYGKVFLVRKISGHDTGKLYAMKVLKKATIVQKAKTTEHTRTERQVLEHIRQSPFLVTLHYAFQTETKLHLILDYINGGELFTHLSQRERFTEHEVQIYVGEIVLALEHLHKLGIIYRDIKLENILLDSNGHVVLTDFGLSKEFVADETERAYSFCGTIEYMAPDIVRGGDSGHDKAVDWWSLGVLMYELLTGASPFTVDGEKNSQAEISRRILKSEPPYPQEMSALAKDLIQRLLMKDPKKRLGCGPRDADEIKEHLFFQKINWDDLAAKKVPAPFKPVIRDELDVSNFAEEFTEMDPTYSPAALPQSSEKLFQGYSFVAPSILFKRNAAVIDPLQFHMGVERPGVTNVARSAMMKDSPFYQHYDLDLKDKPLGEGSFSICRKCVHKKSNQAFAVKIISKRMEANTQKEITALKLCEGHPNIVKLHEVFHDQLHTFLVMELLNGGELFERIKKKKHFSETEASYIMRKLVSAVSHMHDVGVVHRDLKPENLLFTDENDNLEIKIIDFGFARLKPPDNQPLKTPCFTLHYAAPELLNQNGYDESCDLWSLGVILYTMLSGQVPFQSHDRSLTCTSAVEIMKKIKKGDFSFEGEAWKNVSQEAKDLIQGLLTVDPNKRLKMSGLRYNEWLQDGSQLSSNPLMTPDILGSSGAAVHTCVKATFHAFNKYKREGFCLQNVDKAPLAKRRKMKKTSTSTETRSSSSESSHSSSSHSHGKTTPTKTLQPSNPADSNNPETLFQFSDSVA
Experiment: Inhibition of MSK1
pIC50: −log10 of the molar value.
measurement_label: pIC50

molecule | measurement
CCn1c(-c2nonc2N)nc2cncc(CNC3CCNCC3)c21 | 8.10
CCn1c(-c2nonc2N)nc2c(C#CC(C)(C)O)ncc(OCCCCN)c21 | 4.80
CCn1c(-c2nonc2N)nc2cncc(C(=O)N3CCNCC3)c21 | 7.33
CCn1c(-c2nonc2N)nc2c(-c3ccccc3)ncc(OCCCN)c21 | 6.00
CCn1c(-c2nonc2N)nc2c(C#CC(C)(C)O)ncc(OCCCNCCc3ccc(OC)cc3)c21 | 4.70
CCn1c(-c2nonc2N)nc2cncc(C(=O)NC3CCCNC3)c21 (configuration not stated) | 7.96
CCn1c(-c2nonc2N)nc2cncc(OCC3CCNCC3)c21 | 9.00
CCn1c(-c2nonc2N)nc2cncc(C(=O)NC3CCNCC3)c21 | 7.89
CCn1c(-c2nonc2N)nc2c(C#CC(C)(C)O)ncc(OCC3CCNC3)c21 (configuration not stated) | 5.00
CCn1c(-c2nonc2N)nc2c(-c3ccoc3)ncc(OCCCN)c21 | 6.79
CCn1c(-c2nonc2N)nc2cncc(OC3CCNCC3)c21 | 7.68
CCn1c(-c2nonc2N)nc2cncc(C(=O)NCCNC)c21 [GW876790X] | 7.82
